biological target: Full length WRN protein (aa 2-1432) (Homo sapiens (Human)); assay: WRN ATPase ADP-Glo biochemical assay, Assay Format B (100 μM ATP); settings: 0.25 nM WRN, 100 nM C6.18 ssDNA, 60 min preincubation, read-out: ATPase ADPGlo AC50 (uM)- Assay Format B
Sequence (Q14191 2-1432): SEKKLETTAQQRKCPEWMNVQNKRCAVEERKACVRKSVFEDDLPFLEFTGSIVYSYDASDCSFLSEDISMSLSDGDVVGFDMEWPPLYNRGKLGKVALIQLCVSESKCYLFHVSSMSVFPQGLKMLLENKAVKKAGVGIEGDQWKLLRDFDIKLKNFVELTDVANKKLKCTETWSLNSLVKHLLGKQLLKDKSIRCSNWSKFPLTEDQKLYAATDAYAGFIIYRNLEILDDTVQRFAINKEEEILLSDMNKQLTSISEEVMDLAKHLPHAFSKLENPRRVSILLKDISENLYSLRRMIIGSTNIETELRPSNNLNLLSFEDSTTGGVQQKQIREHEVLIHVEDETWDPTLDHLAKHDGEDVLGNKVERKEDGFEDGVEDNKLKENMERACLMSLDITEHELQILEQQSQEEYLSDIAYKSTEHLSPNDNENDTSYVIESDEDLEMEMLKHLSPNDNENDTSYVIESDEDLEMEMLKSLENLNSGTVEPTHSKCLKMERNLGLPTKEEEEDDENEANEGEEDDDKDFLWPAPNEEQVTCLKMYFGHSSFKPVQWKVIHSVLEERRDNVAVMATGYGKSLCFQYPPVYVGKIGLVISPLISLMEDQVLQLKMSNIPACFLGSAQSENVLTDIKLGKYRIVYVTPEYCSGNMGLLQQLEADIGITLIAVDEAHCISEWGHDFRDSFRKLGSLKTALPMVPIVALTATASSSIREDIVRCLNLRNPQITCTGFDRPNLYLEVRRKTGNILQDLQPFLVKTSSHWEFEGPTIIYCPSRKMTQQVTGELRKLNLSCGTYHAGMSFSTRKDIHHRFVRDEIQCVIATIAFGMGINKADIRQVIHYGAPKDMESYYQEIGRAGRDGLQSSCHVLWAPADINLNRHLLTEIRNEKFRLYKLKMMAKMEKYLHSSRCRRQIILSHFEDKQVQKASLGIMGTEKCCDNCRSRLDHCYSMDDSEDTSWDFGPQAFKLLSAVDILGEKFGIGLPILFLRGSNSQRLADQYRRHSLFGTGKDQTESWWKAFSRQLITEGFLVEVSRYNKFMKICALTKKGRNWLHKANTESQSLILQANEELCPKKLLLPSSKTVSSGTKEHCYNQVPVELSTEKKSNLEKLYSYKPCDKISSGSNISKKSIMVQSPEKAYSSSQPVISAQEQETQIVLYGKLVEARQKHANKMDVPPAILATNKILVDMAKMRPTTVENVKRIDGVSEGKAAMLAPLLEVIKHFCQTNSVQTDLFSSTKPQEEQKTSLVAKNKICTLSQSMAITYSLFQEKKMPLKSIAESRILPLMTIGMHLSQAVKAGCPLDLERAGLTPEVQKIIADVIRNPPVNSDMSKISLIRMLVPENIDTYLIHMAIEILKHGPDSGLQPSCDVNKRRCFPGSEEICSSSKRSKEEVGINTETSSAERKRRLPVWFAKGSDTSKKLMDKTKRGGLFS
Readout Type: AC50

Previously resolved entries follow.
| Compound | AC50 |
| --- | --- |
| C=CC(=O)N1CCc2nn(-c3ccc(C4CC4)c(F)c3OC)c3c2C(C1)N(C(=O)c1cnc(C(F)(F)F)c(O)c1)CC3 (centres unmarked) | 0.015 to 0.055 µM |
| C=CC(=O)N1CCc2nn(-c3ccc(C4CCC4)cc3O)c3c2C(C1)N(C(=O)c1ncc(C(F)(F)F)cc1N)CC3 (centres unmarked) | 0.015 to 0.055 µM |
| C=CC(=O)N1CCc2nn(-c3ccc(C(C)C)cc3)c3c2C(C1)N(C(=O)c1ccc(Br)c2[nH]c(N4CCC4)nc12)CC3 (centres unmarked) | 0.015 to 0.055 µM |
| C=CC(=O)N1CCc2nn(-c3ccc(C4CC4)c(F)c3O)c3c2C(C1)N(C(=O)c1cnc(C(F)(F)F)c(F)c1N)CC3 (centres unmarked) | 0.005 to 0.015 µM |
| C=CC(=O)N1CCc2nn(-c3ccc(C4CCC4)cc3O)c3c2C(C1)N(C(=O)c1ccc(C(F)(F)F)nc1)CC3 (centres unmarked) | 0.005 to 0.015 µM |

Per the record, C=CC(=O)N1CCc2nn(-c3ccc(C(C)C)cc3)c3c2C(C1)N(C(=O)c1ncc(Br)c2[nH]cnc12)CC3 (centres unmarked) has AC50 of 0.015 to 0.055 µM

Form: compound = C=CC(=O)N1CCc2nn(-c3ccc(C(C)C)cc3)c3c2C(C1)N(C(=O)c1ccc(Br)c(NCC(F)(F)F)c1)CC3 (centres unmarked) ; AC50 = > 0.055 µM
